This collection of values is drawn from PubChem BioAssay (NCI).

Tested on: KM12 colon
Assay summary: NCI tumour cell line growth inhibition, 48 h; in the data active means GI50 below about 0.43 µM; inactive means the rest
One label from this list, please: T = active, F = inactive

Worked set:
Molecule	Label class
O=C1C(Cl)=C(Nc2cccc(O)c2)C(=O)N1c1cc(Cl)c(Cl)cc1Cl	F
COc1c(N2CCN(CN3C(=O)C(=Nc4ccc(S(=O)(=O)Nc5ncccn5)cc4)c4ccccc43)C(C)C2)c(F)cc2c(=O)c(C(=O)O)cn(C3CC3)c12 (stereo not given)	F

Ask: Could you kindly confirm the outcome this assay logged for Oc1ccc(CCCCCCc2ccc(O)cc2)cc1 ?
Result: F

Ask: Could you kindly confirm the outcome this assay logged for CC(=O)OCC1OC(n2ccc(=O)[nH]c2=O)C(OC(C)=O)C1OC(C)=O (stereo not given) ?
Result: F

Ask: Could you kindly confirm the outcome this assay logged for CCCCN(Cc1ccc(F)cc1)c1ccc(CO)c(Cl)c1 ?
Result: F

Ask: Could you kindly confirm the outcome this assay logged for COc1ccc(-c2cncn2-c2ccc(OC)cc2)cc1 ?
Result: F

Ask: Could you kindly confirm the outcome this assay logged for Fc1ccc2[nH]c3c(NCCCN4CCOCC4)ncnc3c2c1 ?
Result: F

Ask: Could you kindly confirm the outcome this assay logged for ClCc1c(Cl)c(Cl)c(Cl)c(CCl)c1Cl ?
Result: F

Ask: Could you kindly confirm the outcome this assay logged for CC(C)(C)c1ccc(S(=O)(=O)N[C@H]2CC[C@H]3[C@@H]4CCc5cc(OS(=O)(=O)O)ccc5[C@H]4CC[C@]23C)cc1 ?
Result: F

Ask: Could you kindly confirm the outcome this assay logged for Fc1cccc(COc2ccc(Nc3ncnc4cc(-c5ccc[nH]5)sc34)cc2Cl)c1 ?
Result: T

====

Test system: U251 CNS
Assay summary: NCI tumour cell line growth inhibition, 48 h
Parameter measured: TGI (µM)
# value in µM; strip the unit string

Compound	Tgt	Val
CC[n+]1c(/C=C/c2ccc(N(CCCl)CCCl)cc2)ccc2cc(NC(=O)/C=C/c3ccccc3)ccc21	U251 CNS	0.619

Ask: Fill in: TGI of CCN(CC)C(=S)SS(=O)(=O)c1ccc([N+](=O)[O-])cc1 is ___
Result: 36.7

Ask: Fill in: TGI of CC(=O)Nc1ccc2[nH]c(-c3cccc(F)c3)cc(=O)c2c1 is ___
Result: 16.3

Ask: Fill in: TGI of COc1ccc2c(c1)c1c(n2CCN2CCCCC2)-c2ccccc2CC1 is ___
Result: 30.5

====

Tested on: RXF 393 renal
Assay summary: NCI tumour cell line growth inhibition, 48 h; in the data active = GI50 below about 0.43 µM; inactive = the rest
One label from this list, please: active, inactive

Worked set:
Molecule	Tgt	Label class
Oc1ccc(CCCCCCc2ccc(O)cc2)cc1	RXF 393 renal	inactive
O=C1C(Cl)=C(Nc2cccc(O)c2)C(=O)N1c1cc(Cl)c(Cl)cc1Cl	RXF 393 renal	inactive
COc1cc(Nc2nc(N[C@H]3CCCC[C@@H]3N)nc3cc[nH]c(=O)c23)cc(OC)c1	RXF 393 renal	active
CN(C)C(=S)N=Nc1c(O)[nH]c2ccccc12	RXF 393 renal	inactive
CCCCN(Cc1ccc(F)cc1)c1ccc(CO)c(Cl)c1	RXF 393 renal	inactive
CC1OC2CC(=O)OC2C2=C1C(=O)c1c(O)c3c(c(O)c1C2=O)C1CC(O)C3(O)C(C)O1 (configuration not stated)	RXF 393 renal	inactive

Ask: Could you kindly confirm the outcome this assay logged for Fc1cccc(COc2ccc(Nc3ncnc4cc(-c5ccc[nH]5)sc34)cc2Cl)c1 ?
Result: inactive

Ask: Could you kindly confirm the outcome this assay logged for COc1c(N2CCN(CN3C(=O)C(=Nc4ccc(S(=O)(=O)Nc5ncccn5)cc4)c4ccccc43)C(C)C2)c(F)cc2c(=O)c(C(=O)O)cn(C3CC3)c12 (configuration not stated) ?
Result: inactive

Ask: Could you kindly confirm the outcome this assay logged for COc1cc(-c2cn(-c3ccc(Cl)cc3)c(C)c2C(=O)C(F)(F)F)cc(OC)c1OC ?
Result: inactive

Ask: Could you kindly confirm the outcome this assay logged for C#CC[C@@H]1C[C@]2(C)[C@H]3CC=C4[C@H]5CC(C)(C)CC[C@]5(C(=O)NCCCCN)CC[C@@]4(C)[C@]3(C)CC[C@H]2C(C)(C)[C@H]1OC(C)=O ?
Result: inactive

Ask: Could you kindly confirm the outcome this assay logged for CC1C(=O)C(C)C(c2ccccc2)N(N=O)C1c1ccccc1 (configuration not stated) ?
Result: inactive

Ask: Could you kindly confirm the outcome this assay logged for O=C(CCl)N1c2ccccc2Sc2c1ccc1ccccc21 ?
Result: inactive

====

Test system: OVCAR-4 ovarian
Assay summary: NCI tumour cell line growth inhibition, 48 h
Parameter measured: TGI

> print(dat)
                                   compound       val
1  CN(C)CCOc1ccc2c(c1)C/C(=C/c1ncc([N+](=O)[O-])n1C)C2=O   5.84 µM
2  N#Cc1ccc(OCc2nc3cc(C(F)(F)F)ccc3nc2-c2ccccc2)cc1  > 100 µM
3  Cc1nnc2n1-c1ccccc1C(=S)N1CSCC21 (centres undefined)  > 100 µM

Next up:
Ask: What measured TGI is associated with OC1COC(n2c3ccc(Br)cc3c3ccc4c5ccccc5[nH]c4c32)C(O)C1O (centres undefined) on OVCAR-4 ovarian?
Result: > 46.2 µM

====

TGI: recorded values
System: NCI-H23 lung
Assay summary: NCI tumour cell line growth inhibition, 48 h

# example entries with known answers
Molecule	Val
COc1nc2nccc-2c2occn12	> 100 µM
COc1c(N2CCN(CN3C(=O)C(=Nc4ccc(S(=O)(=O)Nc5ncccn5)cc4)c4ccccc43)C(C)C2)c(F)cc2c(=O)c(C(=O)O)cn(C3CC3)c12 (stereo not given)	> 50 µM
COc1cc(C2c3cc4c(cc3[C@@H](Nc3cccc(C(C)=O)c3)C3COC(=O)[C@H]23)OCO4)cc(OC)c1O (stereo not given in full)	3.14 µM
CCOP(=O)(OCC)C(NC(c1ccccc1)c1ccccc1)c1cccc2ccccc12 (stereo not given)	29.5 µM

Ask: What measured TGI is associated with COc1ccc(CC(C)N)cc1 (stereo not given) on NCI-H23 lung?
Result: > 100 µM

====

Test system: SK-MEL-2 melanoma
Assay summary: NCI tumour cell line growth inhibition, 48 h
Parameter measured: GI50

# example entries with known answers
> print(dat)
                                   compound                tgt      val
1  C=C1C(=O)O[C@H]2[C@H]1CC/C(COC(=O)N1CCC[C@H]1C(=O)Nc1ccc(OC)c(C(N)=O)c1O)=C\CC[C@@]1(C)O[C@@H]21  SK-MEL-2 melanoma  6.58 µM
2  CC(C)(C)c1ccc(S(=O)(=O)N[C@H]2CC[C@H]3[C@@H]4CCc5cc(OS(=O)(=O)O)ccc5[C@H]4CC[C@]23C)cc1  SK-MEL-2 melanoma  2.46 µM
3  O=C1/C(=C/c2ccc(O)cc2)COc2ccc(-c3ccccc3)cc21  SK-MEL-2 melanoma  16.8 µM
4  O=C1C(Cl)=C(Nc2cccc(O)c2)C(=O)N1c1cc(Cl)c(Cl)cc1Cl  SK-MEL-2 melanoma    15 µM
5        CN(C)c1ccc2cc(-c3ccccc3F)c(N)nc2c1  SK-MEL-2 melanoma  2.05 µM

Ask: Fill in: GI50 of Fc1ccc2[nH]c3c(NCCCN4CCOCC4)ncnc3c2c1 is ___
Result: 52 µM

Ask: Fill in: GI50 of CCOP(=O)(OCC)C(NC(c1ccccc1)c1ccccc1)c1cccc2ccccc12 (centres undefined) is ___
Result: 27.7 µM

Ask: Fill in: GI50 of CC[C@H](CC#N)OC(=O)N[C@@H](C)c1cccc(NC(=O)Nc2ccc(-c3cnco3)c(OC)c2)c1 is ___
Result: 4.05 µM

Ask: Fill in: GI50 of COc1ccc2c(c1)OC(N(C(C)=O)C(C)=O)=C(C#N)C2c1ccc(F)cc1 (centres undefined) is ___
Result: 1.08 µM

====

System: K-562 leukemia
Assay summary: NCI tumour cell line growth inhibition, 48 h
TGI: recorded values

# example entries with known answers
> print(dat)
                                   compound  parameter.measured       val
1  CC[n+]1c(/C=C/c2ccc(N(CCCl)CCCl)cc2)ccc2cc(NC(=O)/C=C/c3ccccc3)ccc21                 TGI  0.235 µM
2  O=S1C2=C(Cc3ccccc3)C(Cc3ccccc3)=C1CCc1cccc(c1)CC2                 TGI  > 100 µM
3  COc1cc2c(cc1OC)CC(N=[N+]=[N-])c1cc(OC)c(OC)cc1/C=C\2 (stereo not given)                 TGI  > 100 µM
4  Cc1cccc(C(C)C)c1NC(=O)C(=O)CC(=O)c1c(C)n([O-])c2ccccc2[n+]1=O                 TGI  > 100 µM

Ask: What measured TGI is associated with Cc1cccc(C(O)c2ccncc2)c1O (stereo not given) on K-562 leukemia?
Result: > 100 µM
